The reported numbers originate from ChEMBL document CHEMBL3988442.

Please respond with reported Percent Effect for every item in the list.
- Tested on: Wolbachia pipientis
- Test Protocol: Anti-Wolbachia Cell-Based Screen
- Format: functional
- Parameters: scale not given: in the data most compounds retested in dose-response had high values
- Settings: 5 µM
The whole screen tested about 48,000 compounds, of which about 13,000 (27%) showed an effect of 50% or more. The list shows a part of the results.
Answers are plain numbers, in %.

Recorded results for 3 compounds are shown here.
Cc1nsc(N2CCN(C(=O)Nc3ccc4[nH]ccc4c3)CC2)n1: 0.5995
CS(=O)(=O)NCC(=O)NC1CCc2nccn2C1 (configuration not stated): 17.97
CN(C)S(=O)(=O)N1C[C@@H]2CC[C@H](C1)N(Cc1cccc(C#N)c1)C2: -14.1

Fill in Percent Effect for each of the 4 compounds listed.
1. Cc1ccc(C(F)(F)F)cc1C(=O)N[C@H]1CN(CCO)C[C@@H]1C1CC1
2. Cc1nc(C)c(C)c(N(C)CCCc2nccn2C)n1
3. CC(c1ccc(C(F)(F)F)cc1)N1CCN(CCS(C)(=O)=O)CC1 (configuration not stated)
4. COc1cc(Br)c(CNC(C)c2nnc3n2CCC3)cc1OC (configuration not stated)

**Result**
7.552
1.22
-14.82
2.226

Count: 8. Required value per item: Percent Effect.
1. COc1ccc(C2CCCN2c2cnc3ccccc3n2)c(OC)c1 (configuration not stated)
2. Cc1nc(C(C)C)sc1C(=O)N(C)CCCc1cnn(C)c1
3. CCc1nnc2sc(-c3cc(C(C)C)n[nH]3)nn12
4. CCCS(=O)(=O)N1C[C@H]2OC(=O)N(CCc3cccc(Cl)c3)[C@H]2C1
5. CCN(C(=O)c1ccc2nnc(C3CCN(S(C)(=O)=O)C3)n2c1)C(C)C (configuration not stated)
6. CC(C)c1cc(-c2nn3c(C(C)C)nnc3s2)[nH]n1
7. CCOCCN1CCC(c2cncc(C)n2)CC1
8. Cc1c(NC(=O)N(C)CCCc2cnn(C)c2)cnn1C

**Result**
1. 8.411
2. -1.065
3. 154.2
4. -3.172
5. -8.044
6. -17.87
7. 133
8. -9.365

Your task in this section: give Percent Effect for each listed record.
1. c1ccc(OCCN2CCCC(c3noc(C4CC4)n3)C2)cc1 (configuration not stated)
2. COCCN(Cc1cccc(C#N)c1)Cc1nnsc1Cl
3. Cc1ccccc1C(C(=O)N(C)CCc1cnn(C)c1)N(C)C (configuration not stated)
4. CCNC(=O)NC1CCCN(c2ccc(C)cc2)C1=O (configuration not stated)
5. CCN(CC)Cc1nnc2sc(-c3cc(C(C)C)[nH]n3)nn12
6. O=C(Cc1ccco1)N1C[C@H]2CCC[C@@]2(COCc2cccnc2)C1

**Result**
[-2.8, 9.531, -25.6, -8.82, 118.1, -4.256]

Respectfully, I request Percent Effect for each entry included below.
1. CN(CCc1cnn(C)c1)C(=O)C1COc2ccccc2C1 (configuration not stated)
2. O=C(CCn1cncn1)NC1CCc2nccn2C1 (configuration not stated)
3. CCc1nc(C)c(CN2CCN(c3ncnc4c(C)csc34)CC2)[nH]1
4. N#CCCN(C(=O)CN1CCCC1Cc1ccccc1)c1ccccc1 (configuration not stated)
5. O=C(Cc1ccsc1)N1C[C@H]2CCC[C@@]2(COCc2ccccn2)C1
6. CN(CCCc1cnn(C)c1)C(=O)C1CCOC1 (configuration not stated)
7. Cc1ncc(S(C)(=O)=O)c(N(C)CCCc2cnn(C)c2)n1
8. COc1cccc(SCC(=O)N2CCCC(N3CCCC3=O)C2)c1 (configuration not stated)

**Result**
1: 12.32; 2: 104.2; 3: 6.188; 4: 14.76; 5: 101.3; 6: -24.42; 7: 106.8; 8: 3.036

====

- Tested on: Wolbachia pipientis
- Test Protocol: Anti-Wolbachia Cell-Based Screen
- Type: functional
- Parameters: scale not given: in the data most compounds retested in dose-response had high values
- Settings: 5 µM
The campaign covered roughly 48,000 compounds. About 13,000 (27%) showed an effect of 50% or more. The list shows a part of the results.
Reported Metric: Percent Effect (%)
Answers are plain numbers, in %.

// for each compound below, give its Percent Effect
1. CN(C)CCn1c2c(ccc1=O)CC(NCc1cccnc1)CC2.O=C(O)C(F)(F)F.O=C(O)C(F)(F)F.O=C(O)C(F)(F)F (stereo not given)
2. CCc1cc(NCCNc2cccnc2)n2nccc2n1
3. Cn1cc(CNC2CCc3c(ccc(=O)n3Cc3cccnc3)C2)cn1.O=C(O)C(F)(F)F.O=C(O)C(F)(F)F (stereo not given)
4. NC(=O)c1cn[nH]c1C1CCCN1C(=O)c1ccccn1 (stereo not given)
5. COc1cccc(CN2CCC3(CCN(c4ncc(C)cn4)CC3)C2)c1.O=C(O)C(F)(F)F

**Result**
1. -9.426
2. -9.581
3. 105.5
4. 92.76
5. 4.048

Could I get Percent Effect for every one of these entries?
1. Cc1cc(NC(=O)CNCc2csc(-c3cnccn3)n2)ccc1Cl
2. COc1cccc(CN2CCC3(CC2)CCN(C(=O)[C@@H]2CCCO2)C3)c1.O=C(O)C(F)(F)F
3. CC(=O)Nc1ccc2nc(-c3nccn3CC(C)(C)CO)ccc2c1
4. NC(=O)c1cn[nH]c1C1CCCN1C(=O)COc1ccccc1 (stereo not given)
5. Cn1cc(CNC2CCc3c(ccc(=O)n3Cc3ccncc3)C2)cn1.O=C(O)C(F)(F)F.O=C(O)C(F)(F)F (stereo not given)
6. N[C@H]1CN(C(=O)c2ccccc2Oc2ccccc2)C[C@@H]1C1CC1

**Result**
-4.536
105.3
3.908
125.9
101.4
-0.964

Quick request: Percent Effect for each listed item, please.
1. COc1cccc(CN2CCCC3(CCN(C(=O)N4CCCC4)C3)C2)c1.O=C(O)C(F)(F)F (stereo not given)
2. CCSc1ccc(C(=O)Nc2c(C)nn(C(C)C)c2C)cn1
3. COc1cccc(CN2CCC3(CCN(C(=O)C4CC=CC4)CC3)C2)c1.O=C(O)C(F)(F)F
4. Cc1csc(CNC(=O)NCC(O)c2cccc(Cl)c2)n1 (stereo not given)
5. COc1cccc(CN2CCC3(CC2)CCN(c2ncccn2)C3)c1.O=C(O)C(F)(F)F.O=C(O)C(F)(F)F
6. O=C(c1cc2c([nH]c1=O)CCC2)N1CCCC1c1ccccn1 (stereo not given)
7. COc1cccc(CN2CCC3(CC2)CCN(c2ncc(C)cn2)C3)c1.O=C(O)C(F)(F)F

**Result**
[81.34, 10.44, 2.015, -23.66, 13.94, -3.505, -9.924]

Kindly give each listed record's Percent Effect.
1. O=C(c1cc2c([nH]c1=O)CCC2)N1CCCC1c1ccccc1 (stereo not given)
2. CS(=O)(=O)c1nnc(NC(=O)CCc2cccs2)[nH]1

**Result**
1. -12.47
2. 5.426

====

Kindly supply the reported Percent Effect values for the records listed here.
- Tested on: Wolbachia pipientis
- Test Protocol: Anti-Wolbachia Cell-Based Screen
- Type: functional
- Design: scale not given: in the data most compounds retested in dose-response had high values
- Settings: 5 µM
In all, about 48,000 compounds went through this assay and about 13,000 (27%) showed an effect of 50% or more. The list shows a part of the results.
Give bare numbers, in %.

Worked set:
CSCCC1c2nc[nH]c2CCN1Cc1[nH]c2ccc(F)cc2c1C (stereo not drawn): 8.699
Cc1[nH]ccc1C(=O)NC1CCC(N2C(=O)CCC2=O)CC1 (stereo not drawn): -10.09
CCOC1COC2(CCN(Cc3cccnc3OC)CC2)C1.O=C(O)C(F)(F)F.O=C(O)C(F)(F)F (stereo not drawn): 97.13
CNc1nc(C)c(C(=O)N2CCC(C(O)Cc3ccccc3)CC2)s1 (stereo not drawn): 102.6
O=C(C1CC1)N1CC[C@H](c2nnc(Cc3c[nH]c4ccccc34)o2)C1: -9.274

Here are 7 molecules. What values of Percent Effect were reported for them?
1. COc1ncccc1CN1CCC2(CC1)CN(c1ccccn1)CCO2.O=C(O)C(F)(F)F.O=C(O)C(F)(F)F.O=C(O)C(F)(F)F
2. c1ccc2c(Cc3nnc([C@H]4CCN(C5CCCCC5)C4)o3)c[nH]c2c1
3. CCOCCN1CCN(Cc2cccc(C(=O)N(C)C)c2)CC1
4. Cn1c(C(=O)N2CCC(CC(N)=O)CC2)c(Cl)c2ccccc21
5. COc1ccc(-c2n[nH]cc2CN(C)CCC2CCOCC2)cc1F
6. COC(=O)N1CCC(NC(=O)N2CCCC2c2ccsc2)CC1 (stereo not drawn)
7. Cn1c(C(=O)N2CCC(C(N)=O)C2)c(Cl)c2ccccc21 (stereo not drawn)

**Result**
1. 8.158
2. 3.447
3. -1.534
4. -9.644
5. -12.67
6. 22.17
7. 50.27

====

- Tested on: Wolbachia pipientis
- Test Protocol: Anti-Wolbachia Cell-Based Screen
- Format: functional
- Design: scale not given: in the data most compounds retested in dose-response had high values
- Settings: 5 µM
Among all 48,000 compounds or so, about 13,000 (27%) showed an effect of 50% or more. Some of the results follow.
Task for the reader: assign each of the following molecules its reported Percent Effect.
Give bare numbers, in %.

CCCN(CC)C(=O)c1ncn2c1CN(C)S(=O)(=O)c1ccccc1-2: 93.03
CCNC(=O)c1ncn2c1CN(C)S(=O)(=O)c1ccccc1-2: 6.974
CN1Cc2c(C(=O)N3CCOCC3)ncn2-c2ccccc2S1(=O)=O: -2.827
CCN1Cc2c(C(=O)NC)ncn2-c2ccccc2S1(=O)=O: -8.627
Cc1csc(N2CCCN(Cc3ccn(C)c(=O)c3)CC2)n1: 2.494

Now examine the next entry.
// recorded Percent Effect for CN(C(=O)c1ncn2c1CN(C)S(=O)(=O)c1ccccc1-2)C1CC1.O=C(O)C(F)(F)F : 110.5
